# study-target: Na^+,K^+ -ATPase (Homo sapiens)
# assay-method-text: inhibition of the activity of purified Na^+,K^+ -ATPase (hydrolysis of ^32 P-ATP)
# Type: biochemical
# condition-context: purified Na^+,K^+ -ATPase, ^32 P-ATP hydrolysis; read-out: Inhibitory Activity -log IC50 (converted)
test-readout: log10 IC50 (log10 of the value in nM)

>>> df
                                   compound  recorded_value
0  C[C@]12CC[C@H](O)C[C@H]1CC[C@@H]1[C@@H]2CC[C@]2(C)[C@@H](/C=N/OCCN)CC[C@]12O            3.20
1  CN(C)CCO/N=C/[C@@]1(O)CC[C@]2(O)[C@@H]3CC[C@@H]4C[C@@H](O)CC[C@]4(C)[C@H]3CC[C@]12C            4.60
2  CN(C)CCO/N=C/[C@H]1CC[C@]2(O)[C@@H]3CC[C@@H]4CC(=NNC(=N)N)CC[C@]4(C)[C@H]3CC[C@]12C (mixture of isomers)            3.10
3  CN(C)CCO/N=C/[C@H]1CC[C@]2(O)[C@@H]3CC[C@@H]4C[C@@H](OCCN5CCCC5)CC[C@]4(C)[C@H]3CC[C@]12C            2.60
4  C/C(=N\OCCN(C)C)[C@H]1CC[C@]2(O)[C@@H]3CC[C@@H]4C[C@@H](O)CC[C@]4(C)[C@H]3CC[C@]12C            3.30
5  CN(C)CCO/N=C/[C@H]1CC[C@]2(O)[C@@H]3CC[C@@H]4C[C@@H](OCCCN)CC[C@]4(C)[C@H]3CC[C@]12C            2.50
6  CO/N=C/[C@H]1CC[C@]2(O)[C@@H]3CC[C@@H]4C[C@@H](OCCN5CCCC5)CC[C@]4(C)[C@H]3CC[C@]12C            4.20
7  CN(C)CCON=C1CC[C@@]2(C)[C@H](CC[C@@H]3[C@@H]2CC[C@]2(C)[C@@H](/C=N/OCCN(C)C)CC[C@]32O)C1 (mixture of isomers)            3.30

* * *

This listing pairs molecules with measured log10 of IC50.
# study-target: Na^+,K^+ -ATPase (Homo sapiens)
# assay-method-text: inhibition of the activity of purified Na^+,K^+ -ATPase (hydrolysis of ^32 P-ATP)
# Type: biochemical
test-readout: log10 of IC50 (log10 of the value in µM)

In [3]: df
Out[3]:
                         chemical_structure   test_readout  recorded_value
0  CO/N=C/[C@H]1CC[C@]2(O)[C@@H]3CC[C@@H]4C[C@@H](O)CC[C@]4(C)[C@H]3CC[C@]12C  log10 of IC50            1.50
1  CO/N=C/[C@H]1CC[C@]2(O)[C@@H]3CC[C@@H]4C[C@@H](OCCCN)CC[C@]4(C)[C@H]3CC[C@]12C  log10 of IC50            1.20
2  CN(C)CCO/N=C/[C@H]1CC[C@]2(O)[C@@H]3CC[C@@H]4C[C@@H](O)CC[C@]4(C)[C@H]3CC[C@]12C  log10 of IC50            0.10
3  C[C@]12CC[C@H](O)C[C@H]1CC[C@@H]1[C@@H]2CC[C@]2(C)[C@@H](/C=N/OCCNC(=N)N)CC[C@]12O  log10 of IC50            0.50
4  CN(C)CCCO/N=C/[C@H]1CC[C@]2(O)[C@@H]3CC[C@@H]4C[C@@H](O)CC[C@]4(C)[C@H]3CC[C@]12C  log10 of IC50            0.40

Origin of the recorded values: patent US5444055A
